# assay_info: chemical genetic growth profiling, strain panel (AID 1159580);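 note: tested at 20 µM; growth read once vehicle control cultures reached saturation at 30 °C; 1 = growth at the plate median or of vehicle wells; lower values mean less growth of the strain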
# condition_set: S. cerevisiae deletion strains, growth OD, locus YNL322C, strain KRE1 (second series), active compounds read low
About 2,000 (36%) of roughly 5,500 compounds were called active. Roughly 18% stayed inconclusive and do not appear here. The list shows a part of the results.
property_label: normalized growth
Could you keep your reply to the number by itself?

[Q] // normalized growth lookup, key: `CCNc1nc(Cl)nc(NCC)n1`
[A] 0.997

[Q] Note, next up: `O=C(O)c1cc(=O)c2cccc(O)c2[nH]1`
[A] 1.03

[Q] Note, next up: `CC(=O)NO`
[A] 0.957

[Q] Note, next up: `O=c1oc2c(O)c(O)cc3c(=O)oc4c(O)c(O)cc1c4c23`
[A] 0.685

[Q] Note, next up: C[C@]12CCC(=O)C=C1CCC1C2C(=O)C[C@@]2(C)C1CC[C@]2(O)C(=O)CO (some centres undefined)
[A] 1

[Q] Note, next up: `CCOc1ccc(C(=O)c2ccc(OC)c(O)c2O)cc1`
[A] 1.03

[Q] Note, next up: `CNS(=O)(=O)c1ccc(NC(=O)c2ccccc2C(=O)O)cc1`
[A] 0.998

[Q] Note, next up: `NC(=O)NO`
[A] 1.03

[Q] Note, next up: COC1(C)CCC2OC2(C)CCC2C1CC2(C)C (centres undefined)
[A] 1.01

[Q] Note, next up: `CCOc1ccc(C(=O)c2cc(O)c(OC)c(OC)c2O)cc1`
[A] 0.989

[Q] Note, next up: `CN1CCN(CCC=C2c3ccccc3Sc3ccc(S(=O)(=O)N(C)C)cc32)CC1`
[A] 0.996

[Q] Note, next up: `c1ccc([C@H]2CN3CCSC3=N2)cc1`
[A] 0.979

[Q] Note, next up: `COc1ccc(C(=O)c2ccccc2)c(O)c1O`
[A] 0.978

[Q] Note, next up: `NC(=O)N1c2ccccc2C=Cc2ccccc21`
[A] 1.03

[Q] Note, next up: `COc1ccc(C(=O)c2ccc(O)cc2)c(O)c1O`
[A] 0.952

[Q] Note, next up: `COc1ccc2c(=O)ccoc2c1`
[A] 1.03

[Q] Note, next up: `CCOc1ccc(C(=O)c2ccc(O)c(O)c2O)cc1`
[A] 0.943

[Q] Note, next up: CO[C@H]1C[C@H](O[C@H]2[C@H](C)[C@@H](OC3O[C@H](C)C[C@H](N(C)C)[C@H]3OC(C)=O)[C@@H](C)C[C@]3(CO3)C(=O)[C@H](C)[C@@H](OC(C)=O)[C@@H](C)[C@@H](C)OC(=O)[C@@H]2C)O[C@@H](C)[C@@H]1OC(C)=O (some centres undefined)
[A] 0.992

[Q] Note, next up: CN1C(=O)CCS(=O)(=O)C1c1ccc(Cl)cc1 (centres undefined)
[A] 1

[Q] Note, next up: C#CC1(O)CCC2C3CCC4=CC(=O)CCC4(C)C3CCC21C (centres undefined)
[A] 1

[Q] Note, next up: `CCC1(CC)C(=O)C=CNC1=O`
[A] 0.992

[Q] Note, next up: `Cc1cc(=O)n(-c2ccccc2)n1C`
[A] 0.991

[Q] Note, next up: CC(=O)OCC(=O)[C@@]1(O)CCC2C3CCC4=CC(=O)CC[C@]4(C)C3[C@@H](O)C[C@@]21C (some centres undefined)
[A] 1.04

[Q] Note, next up: `CC1=NN(c2ccccc2)C(=O)C1`
[A] 0.977

====

# assay_info: chemical genetic growth profiling, strain panel (AID 1159580)
# condition_set: S. cerevisiae deletion strains, growth OD, locus YDR502C, strain sam2, active compounds read low
Out of some 5,500 compounds screened, about 2,000 (36%) were called active. Not shown: some 18% with an inconclusive outcome. The list shows a part of the results.
For each entry below, report its normalized growth value.
Could you keep your reply to the number by itself?

[Q] // normalized growth lookup, key: COC1(C)CCC2OC2(C)CCC2C1CC2(C)C (centres undefined)
[A] 1.04

[Q] Note, next up: `O=C(O)c1cc(=O)c2c(Cl)cc(Cl)cc2[nH]1`
[A] 1.01

[Q] Note, next up: CO[C@H]1C[C@H](O[C@H]2[C@H](C)[C@@H](OC3O[C@H](C)C[C@H](N(C)C)[C@H]3OC(C)=O)[C@@H](C)C[C@]3(CO3)C(=O)[C@H](C)[C@@H](OC(C)=O)[C@@H](C)[C@@H](C)OC(=O)[C@@H]2C)O[C@@H](C)[C@@H]1OC(C)=O (some centres undefined)
[A] 0.977

[Q] Note, next up: `Cc1cc(C(C)(C)C)cc(C)c1CC1=NCCN1`
[A] 0.998

[Q] Note, next up: `O=C(O)[C@H](O)[C@@](O)(Cc1ccc(O)cc1)C(=O)O`
[A] 0.995

[Q] Note, next up: COC(=O)C[C@H]1C(C)(C)[C@@H](O)[C@@H]2CC3=C4C=C(OC)O[C@@H](c5ccoc5)[C@]4(C)CCC3[C@@]1(C)C2=O (some centres undefined)
[A] 0.982

[Q] Note, next up: `CC1=NN(c2ccccc2)C(=O)C1`
[A] 0.934

[Q] Note, next up: `Cc1ccc(N(CC2=NCCN2)c2cccc(O)c2)cc1`
[A] 0.977

[Q] Note, next up: `C=C(C)[C@H]1Cc2c(ccc3c2O[C@@H]2COc4cc(OC)c(OC)cc4[C@@H]2C3=O)O1`
[A] 1

====

For each entry below, report its normalized growth value.
# assay_info: chemical genetic growth profiling, strain panel (AID 1159580);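 note: tested at 20 µM; growth read once vehicle control cultures reached saturation at 30 °C; 1 = growth at the plate median or of vehicle wells; lower values mean less growth of the strain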
# condition_set: S. cerevisiae deletion strains, growth OD, locus YNL161W, strain CBK1, active compounds read low
Out of some 5,500 compounds screened, about 2,000 (36%) were called active. Roughly 18% stayed inconclusive and do not appear here. Some of the results follow.
Could you keep your reply to the number by itself?

[Q] // normalized growth lookup, key: `CCOC(=O)c1cnc2c(c(C)nn2C)c1Sc1nnc(SC)s1`
[A] 0.88

[Q] Note, next up: `Cn1nc(-c2ccccc2)c(O)c(N=Nc2ccccc2)c1=O`
[A] 0.965

[Q] Note, next up: CN1c2ccccc2C(C)(C)C12C=Cc1cc(O)ccc1O2 (stereo unspecified)
[A] 0.973

[Q] Note, next up: `COc1cc(N2C(=O)C=CC2=O)cc(OC)c1OC`
[A] 0.961

[Q] Note, next up: S=C(N/N=C\c1cccs1)NC1CC2CCC1C2 (stereo unspecified)
[A] 0.936

[Q] Note, next up: `O=c1c(-c2ccccc2)c(O)c2cccc3c4ccccc4n1c23`
[A] 0.133

====

# assay_info: chemical genetic growth profiling, strain panel (AID 1159580);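 note: tested at 20 µM; growth read once vehicle control cultures reached saturation at 30 °C; 1 = growth at the plate median or of vehicle wells; lower values mean less growth of the strain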
# condition_set: S. cerevisiae deletion strains, growth OD, locus YAR019C, strain CDC15, active compounds read low
The whole screen tested about 5,500 compounds, of which about 2,000 (36%) were called active. About 18% were inconclusive and are not listed. Some of the results follow.
For each entry below, report its normalized growth value.
Could you keep your reply to the number by itself?

[Q] // normalized growth lookup, key: `O=C(Nc1cc2c(s1)-c1cc(Cl)ccc1SC2)Oc1ccccc1`
[A] 0.977

[Q] Note, next up: COc1ccc(C2CC(c3ccc(C)cc3C)=NN2C(C)=O)cc1 (centres undefined)
[A] 0.997

[Q] Note, next up: CN1c2ccccc2C(C)(C)C12C=Cc1cc(O)ccc1O2 (centres undefined)
[A] 0.981

[Q] Note, next up: `CCOC(=O)c1cnc2c(c(C)nn2C)c1Sc1nnc(SC)s1`
[A] 0.847

[Q] Note, next up: `CS/C(Nc1cccc(C(F)(F)F)c1)=C(/C#N)S(=O)(=O)c1ccc(Cl)cc1`
[A] 0.951

[Q] Note, next up: `Clc1ccc(N/N=C\c2sccc2Oc2ccccc2)cc1`
[A] 0.971

[Q] Note, next up: `Cc1ccc(OCc2n[nH]c(=S)n2Cc2ccccc2)c2c1CCC2`
[A] 0.987

[Q] Note, next up: `CSc1nnc(COc2ccc(C)c3c2CCC3)n1-c1ccccc1`
[A] 0.982

[Q] Note, next up: `CC(C)(C)C(=O)c1sc2sc(C(=O)C(C)(C)C)c(N)c2c1N`
[A] 0.993

====

# assay_info: chemical genetic growth profiling, strain panel (AID 1159580);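 note: tested at 20 µM; growth read once vehicle control cultures reached saturation at 30 °C; 1 = growth at the plate median or of vehicle wells; lower values mean less growth of the strain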
# condition_set: S. cerevisiae deletion strains, growth OD, locus YML032C, strain rad52, active compounds read low
The campaign covered roughly 5,500 compounds. About 2,000 (36%) were called active. Inconclusive results (about 18%) are left out. The list shows a part of the results.
For each entry below, report its normalized growth value.
Could you keep your reply to the number by itself?

[Q] // normalized growth lookup, key: `CCNc1nc(Cl)nc(NCC)n1`
[A] 1.01

[Q] Note, next up: `O=C(CCBr)N1CCN(C(=O)CCBr)CC1`
[A] 1

[Q] Note, next up: C#CC1(O)CCC2C3CCC4=CC(=O)CCC4(C)C3CCC21C (centres undefined)
[A] 0.99

[Q] Note, next up: `COC(=O)[C@]1(C)CC[C@]2(C)CC[C@]3(C)C4=CC=C5C(=CC(=O)C(O)=C5C)[C@]4(C)CC[C@@]3(C)[C@@H]2C1`
[A] 0.873

[Q] Note, next up: C[C@]12CCC(=O)C=C1CCC1C2C(=O)C[C@@]2(C)C1CC[C@]2(O)C(=O)CO (some centres undefined)
[A] 0.957

[Q] Note, next up: `CC1=NN(c2ccccc2)C(=O)C1`
[A] 0.922

[Q] Note, next up: `CC1(C)C=Cc2cc3ccc(=O)oc3cc2O1`
[A] 0.923

[Q] Note, next up: `Cc1cc(C(C)(C)C)c(O)c(C)c1CC1=NCCN1`
[A] 0.999

[Q] Note, next up: `COc1ccc2c(c1)[C@]13CCCC[C@H]1[C@H](C2)N(C)CC3`
[A] 0.997

[Q] Note, next up: `C=C(C)[C@H]1Cc2c(ccc3c2O[C@@H]2COc4cc(OC)c(OC)cc4[C@@H]2C3=O)O1`
[A] 1.01

[Q] Note, next up: CC(=O)OCC1=C(C(=O)O)N2C(=O)[C@@H](NC(=O)CCCC(N)C(=O)O)C2SC1 (some centres undefined)
[A] 1.02

[Q] Note, next up: COP(=O)(OC)OC(Br)C(Cl)(Cl)Br (centres undefined)
[A] 1.01

[Q] Note, next up: `CC[C@H]1OC(=O)[C@H](C)[C@@H](O[C@H]2C[C@@](C)(OC)[C@@H](O)[C@H](C)O2)[C@H](C)[C@@H](O[C@@H]2O[C@H](C)C[C@H](N(C)C)[C@H]2O)[C@](C)(O)C[C@@H](C)[C@@H]2N[C@@H](COCCOC)O[C@H]([C@H]2C)[C@]1(C)O`
[A] 0.999

[Q] Note, next up: CC(=O)[C@@]1(O)CCC2C3CCC4=CC(=O)CC[C@]4(C)C3CC[C@@]21C (some centres undefined)
[A] 0.981

[Q] Note, next up: `CC1=C(O)C(=O)C=C2C1=CC=C1[C@@]2(C)CC[C@@]2(C)[C@@H]3C[C@](C)(C(=O)O)CC[C@]3(C)CC[C@]12C`
[A] 0.533

[Q] Note, next up: COc1cc2c(cc1OC)-c1c(oc3c4c(ccc3c1=O)OC(C(C)C)C4)CO2 (centres undefined)
[A] 1.01

[Q] Note, next up: CN1C(=O)CCS(=O)(=O)C1c1ccc(Cl)cc1 (centres undefined)
[A] 1.04

[Q] Note, next up: C[C@]12CCC(=O)C=C1CCC1C2[C@@H](O)C[C@@]2(C)C1CC[C@]2(O)C(=O)COC(=O)CCC(=O)O (some centres undefined)
[A] 0.994

[Q] Note, next up: C#C[C@]1(O)CCC2C3CCC4=Cc5oncc5C[C@]4(C)C3CC[C@@]21C (some centres undefined)
[A] 0.928
